For each of the molecules below, state its Ki.
# TARGET OF ASSAY: Delta-type opioid receptor (Rattus norvegicus)
# Sequence (P33533 whole entry): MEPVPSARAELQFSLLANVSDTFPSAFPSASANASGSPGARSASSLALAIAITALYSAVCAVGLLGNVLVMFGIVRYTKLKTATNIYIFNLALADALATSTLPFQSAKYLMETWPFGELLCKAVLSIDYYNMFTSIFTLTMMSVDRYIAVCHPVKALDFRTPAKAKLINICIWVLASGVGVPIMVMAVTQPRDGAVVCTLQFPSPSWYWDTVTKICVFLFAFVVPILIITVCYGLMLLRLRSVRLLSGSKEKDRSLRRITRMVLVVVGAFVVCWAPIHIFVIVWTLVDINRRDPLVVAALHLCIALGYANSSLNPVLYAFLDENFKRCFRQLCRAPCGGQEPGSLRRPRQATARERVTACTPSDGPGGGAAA
# PROCEDURE SUMMARY: Compound was evaluated for binding affinity against delta opioid receptor of rat forebrain using [3H]-DPDPE as the radioligand using competition binding assays.
Write your answer as a measured quantity: the number, then the unit.

Prompt: Give Ki for CC[C@H](C)[C@H](NC(=O)[C@H](CCCN=C(N)N)NC(=O)[C@H](CCCN=C(N)N)NC(=O)[C@H](CC(C)C)NC(=O)[C@H](Cc1ccccc1)NC(=O)CNC(=O)[C@@H](CC(=O)O)NC(=O)[C@@H](N)Cc1ccc(O)cc1)C(=O)N[C@@H](CCCN=C(N)N)C(=O)N1CCC[C@H]1C(=O)N[C@@H](CCCCN)C(=O)N[C@@H](CC(C)C)C(=O)N[C@@H](CCCCN)C(N)=O
Completion: 0.044 nM

Prompt: Entry CC[C@H](C)[C@H](NC(=O)[C@H](CCCN=C(N)N)NC(=O)[C@H](CCCN=C(N)N)NC(=O)[C@H](CCN=C(N(C)C)N(C)C)NC(=O)[C@H](Cc1ccccc1)NC(=O)CNC(=O)[C@@H](CC(=O)O)NC(=O)[C@@H](N)Cc1ccc(O)cc1)C(=O)N[C@@H](CCCN=C(N)N)C(=O)N1CCC[C@H]1C(=O)N[C@@H](CCCCN)C(=O)N[C@@H](CC(C)C)C(=O)N[C@@H](CCCCN)C(N)=O needs its Ki filled in; supply it.
Completion: 7.52 nM

###

# TARGET OF ASSAY: Delta-type opioid receptor (Rattus norvegicus)
# PROCEDURE SUMMARY: Compound was evaluated for binding affinity against delta opioid receptor of rat forebrain using [3H]-DPDPE as the radioligand using competition binding assays.
So I've got a bunch of compounds here, and I need their Ki values.
Numeric answer only, unit µM assumed.

Prompt: Determine reported Ki for CC[C@H](C)[C@H](NC(=O)[C@H](CCCN=C(N)N)NC(=O)[C@H](CCCN=C(N)N)NC(=O)[C@H](CCCN=C(N(C)C)N(C)C)NC(=O)[C@H](Cc1ccccc1)NC(=O)CNC(=O)[C@@H](CC(=O)O)NC(=O)[C@@H](N)Cc1ccc(O)cc1)C(=O)N[C@@H](CCCN=C(N)N)C(=O)N1CCC[C@H]1C(=O)N[C@@H](CCCCN)C(=O)N[C@@H](CC(C)C)C(=O)N[C@@H](CCCCN)C(N)=O ; test system: Delta-type opioid receptor (Rattus norvegicus).
Completion: 0.0142

Prompt: Check Delta-type opioid receptor (Rattus norvegicus) data and give Ki for CC[C@H](C)[C@H](NC(=O)[C@H](CCCN=C(N)N)NC(=O)[C@H](CCCN=C(N)N)NC(=O)[C@@H]1CCCNC(=O)C[C@@H](NC(=O)[C@@H](N)Cc2ccc(O)cc2)C(=O)NCC(=O)N[C@@H](Cc2ccccc2)C(=O)N1)C(=O)N[C@@H](CCCN=C(N)N)C(=O)N1CCC[C@H]1C(=O)N[C@@H](CCCCN)C(=O)N[C@@H](CC(C)C)C(=O)N[C@@H](CCCCN)C(N)=O .
Completion: 0.0141

Prompt: Report Ki from Delta-type opioid receptor (Rattus norvegicus) testing of CC[C@H](C)[C@H](NC(=O)[C@H](CCCN=C(N)N)NC(=O)[C@H](CCCN=C(N)N)NC(=O)[C@H](CN=C(N(C)C)N(C)C)NC(=O)[C@H](Cc1ccccc1)NC(=O)CNC(=O)[C@@H](CC(=O)O)NC(=O)[C@@H](N)Cc1ccc(O)cc1)C(=O)N[C@@H](CCCN=C(N)N)C(=O)N1CCC[C@H]1C(=O)N[C@@H](CCCCN)C(=O)N[C@@H](CC(C)C)C(=O)N[C@@H](CCCCN)C(N)=O
Completion: 0.00431

Prompt: GET Ki where system = Delta-type opioid receptor (Rattus norvegicus) and item = CC[C@H](C)[C@H](NC(=O)[C@H](CCCN=C(N)N)NC(=O)[C@H](CCCN=C(N)N)NC(=O)[C@@H]1CCNC(=O)C[C@@H](NC(=O)[C@@H](N)Cc2ccc(O)cc2)C(=O)NCC(=O)N[C@@H](Cc2ccccc2)C(=O)N1)C(=O)N[C@@H](CCCN=C(N)N)C(=O)N1CCC[C@H]1C(=O)N[C@@H](CCCCN)C(=O)N[C@@H](CC(C)C)C(=O)N[C@@H](CCCCN)C(N)=O
Completion: 0.012

Prompt: Answer briefly: Ki recorded on Delta-type opioid receptor (Rattus norvegicus) for CC[C@H](C)[C@H](NC(=O)[C@H](CCCN=C(N)N)NC(=O)[C@H](CCCN=C(N)N)NC(=O)[C@@H]1CNC(=O)C[C@@H](NC(=O)[C@@H](N)Cc2ccc(O)cc2)C(=O)NCC(=O)N[C@@H](Cc2ccccc2)C(=O)N1)C(=O)N[C@@H](CCCN=C(N)N)C(=O)N1CCC[C@H]1C(=O)N[C@@H](CCCCN)C(=O)N[C@@H](CC(C)C)C(=O)N[C@@H](CCCCN)C(N)=O
Completion: 0.0102

###

# Species: Cavia porcellus
# PROCEDURE SUMMARY: In vitro inhibition of electrically evoked contractions of the guinea pig ileum (GPI)
# Format: functional
PARAMETER MEASURED: IC50

Prompt: Provide only the value of recorded IC50 for CC[C@H](C)[C@H](NC(=O)[C@H](CCCN=C(N)N)NC(=O)[C@H](CCCN=C(N)N)NC(=O)[C@H](CC(C)C)NC(=O)[C@H](Cc1ccccc1)NC(=O)CNC(=O)[C@@H](CC(=O)O)NC(=O)[C@@H](N)Cc1ccc(O)cc1)C(=O)N[C@@H](CCCN=C(N)N)C(=O)N1CCC[C@H]1C(=O)N[C@@H](CCCCN)C(=O)N[C@@H](CC(C)C)C(=O)N[C@@H](CCCCN)C(N)=O
Completion: 0.46 nM

Prompt: Kindly indicate its recorded IC50. Item: CC[C@H](C)[C@H](NC(=O)[C@H](CCCN=C(N)N)NC(=O)[C@H](CCCN=C(N)N)NC(=O)[C@H](CN=C(N(C)C)N(C)C)NC(=O)[C@H](Cc1ccccc1)NC(=O)CNC(=O)[C@@H](CC(=O)O)NC(=O)[C@@H](N)Cc1ccc(O)cc1)C(=O)N[C@@H](CCCN=C(N)N)C(=O)N1CCC[C@H]1C(=O)N[C@@H](CCCCN)C(=O)N[C@@H](CC(C)C)C(=O)N[C@@H](CCCCN)C(N)=O
Completion: 0.46 nM

Prompt: Identify IC50 associated with the compound CC[C@H](C)[C@H](NC(=O)[C@H](CCCN=C(N)N)NC(=O)[C@H](CCCN=C(N)N)NC(=O)[C@@H]1CCNC(=O)C[C@@H](NC(=O)[C@@H](N)Cc2ccc(O)cc2)C(=O)NCC(=O)N[C@@H](Cc2ccccc2)C(=O)N1)C(=O)N[C@@H](CCCN=C(N)N)C(=O)N1CCC[C@H]1C(=O)N[C@@H](CCCCN)C(=O)N[C@@H](CC(C)C)C(=O)N[C@@H](CCCCN)C(N)=O
Completion: 0.23 nM

Prompt: Give the reported value of IC50 for this record: CC[C@H](C)[C@H](NC(=O)[C@H](CCCN=C(N)N)NC(=O)[C@H](CCCN=C(N)N)NC(=O)[C@@H]1CCCNC(=O)C[C@@H](NC(=O)[C@@H](N)Cc2ccc(O)cc2)C(=O)NCC(=O)N[C@@H](Cc2ccccc2)C(=O)N1)C(=O)N[C@@H](CCCN=C(N)N)C(=O)N1CCC[C@H]1C(=O)N[C@@H](CCCCN)C(=O)N[C@@H](CC(C)C)C(=O)N[C@@H](CCCCN)C(N)=O
Completion: 0.4 nM

Prompt: Dear colleague, please send me the reported IC50 for CC[C@H](C)[C@H](NC(=O)[C@H](CCCN=C(N)N)NC(=O)[C@H](CCCN=C(N)N)NC(=O)[C@H](CC(C)C)NC(=O)[C@H](Cc1ccccc1)NC(=O)CNC(=O)CNC(=O)[C@@H](N)Cc1ccc(O)cc1)C(=O)N[C@@H](CCCN=C(N)N)C(=O)N1CCC[C@H]1C(=O)N[C@@H](CCCCN)C(=O)N[C@@H](CC(C)C)C(=O)N[C@@H](CCCCN)C(N)=O when you can.
Completion: 0.22 nM

###

Record form. Attribute: Ki. Fill in for each entry.
Give a bare numeral; the unit nM is implied.

Prompt: Report the value of Ki obtained on Mu-type opioid receptor (Rattus norvegicus) for CC[C@H](C)[C@H](NC(=O)[C@H](CCCN=C(N)N)NC(=O)[C@H](CCCN=C(N)N)NC(=O)[C@H](CCN=C(N(C)C)N(C)C)NC(=O)[C@H](Cc1ccccc1)NC(=O)CNC(=O)[C@@H](CC(=O)O)NC(=O)[C@@H](N)Cc1ccc(O)cc1)C(=O)N[C@@H](CCCN=C(N)N)C(=O)N1CCC[C@H]1C(=O)N[C@@H](CCCCN)C(=O)N[C@@H](CC(C)C)C(=O)N[C@@H](CCCCN)C(N)=O .
Sequence (P33535 whole entry): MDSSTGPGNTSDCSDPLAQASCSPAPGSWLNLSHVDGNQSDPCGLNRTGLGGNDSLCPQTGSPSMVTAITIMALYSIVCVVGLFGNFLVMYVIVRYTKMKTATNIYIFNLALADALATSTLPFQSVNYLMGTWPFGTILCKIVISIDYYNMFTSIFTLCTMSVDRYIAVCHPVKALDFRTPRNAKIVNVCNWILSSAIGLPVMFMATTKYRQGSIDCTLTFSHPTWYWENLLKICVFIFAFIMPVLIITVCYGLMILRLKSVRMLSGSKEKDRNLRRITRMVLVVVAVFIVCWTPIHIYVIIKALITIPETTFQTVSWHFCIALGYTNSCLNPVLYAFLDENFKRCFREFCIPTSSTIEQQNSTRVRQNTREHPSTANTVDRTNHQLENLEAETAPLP
Completion: 0.32

Prompt: # return Ki of CC[C@H](C)[C@H](NC(=O)[C@H](CCCN=C(N)N)NC(=O)[C@H](CCCN=C(N)N)NC(=O)[C@H](CC(C)C)NC(=O)[C@H](Cc1ccccc1)NC(=O)CNC(=O)[C@@H](CC(=O)O)NC(=O)[C@@H](N)Cc1ccc(O)cc1)C(=O)N[C@@H](CCCN=C(N)N)C(=O)N1CCC[C@H]1C(=O)N[C@@H](CCCCN)C(=O)N[C@@H](CC(C)C)C(=O)N[C@@H](CCCCN)C(N)=O (system: Mu-type opioid receptor (Rattus norvegicus))
Completion: 0.013

Prompt: For Mu-type opioid receptor (Rattus norvegicus), give the measured Ki of the entry CC[C@H](C)[C@H](NC(=O)[C@H](CCCN=C(N)N)NC(=O)[C@H](CCCN=C(N)N)NC(=O)[C@@H]1CNC(=O)C[C@@H](NC(=O)[C@@H](N)Cc2ccc(O)cc2)C(=O)NCC(=O)N[C@@H](Cc2ccccc2)C(=O)N1)C(=O)N[C@@H](CCCN=C(N)N)C(=O)N1CCC[C@H]1C(=O)N[C@@H](CCCCN)C(=O)N[C@@H](CC(C)C)C(=O)N[C@@H](CCCCN)C(N)=O
Completion: 0.49

Prompt: Using Mu-type opioid receptor (Rattus norvegicus) as the test system, report measured Ki of CC[C@H](C)[C@H](NC(=O)[C@H](CCCN=C(N)N)NC(=O)[C@H](CCCN=C(N)N)NC(=O)[C@@H]1CCCNC(=O)C[C@@H](NC(=O)[C@@H](N)Cc2ccc(O)cc2)C(=O)NCC(=O)N[C@@H](Cc2ccccc2)C(=O)N1)C(=O)N[C@@H](CCCN=C(N)N)C(=O)N1CCC[C@H]1C(=O)N[C@@H](CCCCN)C(=O)N[C@@H](CC(C)C)C(=O)N[C@@H](CCCCN)C(N)=O .
Completion: 0.19

Prompt: Retrieve Ki on Mu-type opioid receptor (Rattus norvegicus); query CC[C@H](C)[C@H](NC(=O)[C@H](CCCN=C(N)N)NC(=O)[C@H](CCCN=C(N)N)NC(=O)[C@@H]1CCNC(=O)C[C@@H](NC(=O)[C@@H](N)Cc2ccc(O)cc2)C(=O)NCC(=O)N[C@@H](Cc2ccccc2)C(=O)N1)C(=O)N[C@@H](CCCN=C(N)N)C(=O)N1CCC[C@H]1C(=O)N[C@@H](CCCCN)C(=O)N[C@@H](CC(C)C)C(=O)N[C@@H](CCCCN)C(N)=O
Completion: 0.17

Prompt: Provide the reported Ki (system: Mu-type opioid receptor (Rattus norvegicus)) for CC[C@H](C)[C@H](NC(=O)[C@H](CCCN=C(N)N)NC(=O)[C@H](CCCN=C(N)N)NC(=O)[C@H](CCCN=C(N(C)C)N(C)C)NC(=O)[C@H](Cc1ccccc1)NC(=O)CNC(=O)[C@@H](CC(=O)O)NC(=O)[C@@H](N)Cc1ccc(O)cc1)C(=O)N[C@@H](CCCN=C(N)N)C(=O)N1CCC[C@H]1C(=O)N[C@@H](CCCCN)C(=O)N[C@@H](CC(C)C)C(=O)N[C@@H](CCCCN)C(N)=O
Completion: 0.28

Prompt: Supply Ki measured with Mu-type opioid receptor (Rattus norvegicus) for CC[C@H](C)[C@H](NC(=O)[C@H](CCCN=C(N)N)NC(=O)[C@H](CCCN=C(N)N)NC(=O)[C@H](CN=C(N(C)C)N(C)C)NC(=O)[C@H](Cc1ccccc1)NC(=O)CNC(=O)[C@@H](CC(=O)O)NC(=O)[C@@H](N)Cc1ccc(O)cc1)C(=O)N[C@@H](CCCN=C(N)N)C(=O)N1CCC[C@H]1C(=O)N[C@@H](CCCCN)C(=O)N[C@@H](CC(C)C)C(=O)N[C@@H](CCCCN)C(N)=O .
Completion: 0.16
